# target: HLA-A*33:01
# assay.overview: IEDB peptide-MHC binding, purified MHC/competitive/radioactivity; filed as Kd, often an IC50 or EC50 that approximates it; bounds were set here for any values at or beyond the usual limits of such assays
# applied.conditions: source organism: SARS coronavirus Tor2
pKd: −log10 of the molar value.
What pKd was measured for each of the following?

The cases that follow already have their pKd on record.
Lookup: Item YLCGFIKQK : provide pKd
Found: ≤ 4.33

Lookup: Item VVYRGTTTY : provide pKd
Found: ≤ 4.11

Lookup: Item HQNSKKTTK : provide pKd
Found: ≤ 4.11

Go through the items and report each one's pKd.
1. SSSLTSLLK
2. LLSGHNLAK
3. VTYTEIEPK
4. TLEEAKTALK
5. VQSKMSDVK

Found:
["≤ 4.38", "≤ 4.11", "≤ 4.59", "≤ 4.15", "≤ 4.60"]

====

What log10(Kd) was measured for each of the following?
# target: HLA-A*68:01
# assay.overview: IEDB peptide-MHC binding, purified MHC/competitive/radioactivity; filed as Kd, often an IC50 or EC50 that approximates it; bounds were set here for any values at or beyond the usual limits of such assays
# applied.conditions: source organism: Vaccinia virus WR
On a log10 scale: recorded Kd, unit nM.

The cases that follow already have their log10(Kd) on record.
Lookup: Item DTDIFSPENK : provide log10(Kd)
Found: 1.63

Lookup: Item KLVYIFEPEK : provide log10(Kd)
Found: 3.23

Lookup: Item ATLMKTSCSK : provide log10(Kd)
Found: 3.69

Lookup: Item AAISKLGINY : provide log10(Kd)
Found: 2.45

Lookup: Item LIWAYLSKK : provide log10(Kd)
Found: 2.33

Lookup: Item TTYMDTFFR : provide log10(Kd)
Found: -1.29

Go through the items and report each one's log10(Kd).
1. NARMATMLEY
2. MFMLIFNVK
3. ISDNKKEYK
4. TFRERYSYK
5. LLFASMGFK
6. VLFSIFYKDY
7. IMSMMNITR

Found:
1: 2.66; 2: 3.13; 3: 3.53; 4: 2.10; 5: 1.10; 6: 3.06; 7: 1.48

====

# target: HLA-A*11:01
# assay.overview: IEDB peptide-MHC binding, purified MHC/competitive/radioactivity; filed as Kd, often an IC50 or EC50 that approximates it; bounds were set here for any values at or beyond the usual limits of such assays
# applied.conditions: source organism: Vaccinia virus WR
What log10 Kd was measured for each of the following?
On a log10 scale: recorded Kd, unit nM.

Lookup: Consider the sequence ETVKMGAFMY tested on HLA-A*11:01; state its log10 Kd.
Found: 3.20

Go through the items and report each one's log10 Kd.
1. IMSMMNITR
2. SLVENNFFTK
3. DMSHLKVALY
4. LVCFPSTQR
5. DMMLMIGNY

Found:
1. 1.79
2. 0.99
3. 3.60
4. 1.61
5. 4.10

====

What Kd was measured for each of the following?
# target: HLA-A*03:01
# assay.overview: IEDB peptide-MHC binding, purified MHC/competitive/radioactivity; filed as Kd, often an IC50 or EC50 that approximates it; bounds were set here for any values at or beyond the usual limits of such assays
# applied.conditions: source organism: SARS coronavirus Tor2
One number for each entry, in nM.

The cases that follow already have their Kd on record.
Lookup: Consider the sequence SFNHVLKRK tested on HLA-A*03:01; state its Kd.
Found: 111

Lookup: Consider the sequence VSTCFKLMLK tested on HLA-A*03:01; state its Kd.
Found: 112

Moving on to the next sequence.
Lookup: Consider the sequence QLQLLMPLK tested on HLA-A*03:01; state its Kd.
Found: 151

====

# target: HLA-B*51:01
# assay.overview: IEDB peptide-MHC binding, purified MHC/competitive/radioactivity; filed as Kd, often an IC50 or EC50 that approximates it; bounds were set here for any values at or beyond the usual limits of such assays
# applied.conditions: source organism: Dengue virus 4 Philippines/H241/1956
What Kd was measured for each of the following?

Lookup: Item FPQSNSPIED : provide Kd
Found: ≥ 37.5 µM

Lookup: Item VAEIQPQWI : provide Kd
Found: ≥ 20.9 µM

Continuing:
Lookup: Item LPTYLSSRAK : provide Kd
Found: ≥ 49.8 µM

====

What Kd was measured for each of the following?
# target: HLA-A*29:02
# assay.overview: IEDB peptide-MHC binding, purified MHC/competitive/radioactivity; filed as Kd, often an IC50 or EC50 that approximates it; bounds were set here for any values at or beyond the usual limits of such assays
# applied.conditions: source organism: SARS coronavirus Tor2
Reply with the number and its unit after it.

Lookup: Item NAAISDYDYY : provide Kd
Found: 688 nM

Lookup: Item YYCKSHKPPI : provide Kd
Found: 1620 nM

Moving on to the next sequence.
Lookup: Item KTSVDCNMY : provide Kd
Found: 2720 nM

====

# target: HLA-A*31:01
# assay.overview: IEDB peptide-MHC binding, purified MHC/competitive/radioactivity; filed as Kd, often an IC50 or EC50 that approximates it; bounds were set here for any values at or beyond the usual limits of such assays
# applied.conditions: source organism: SARS coronavirus Tor2
property: Kd (nM)
One number for each entry, in nM.

The cases that follow already have their Kd on record.
Lookup: Consider the sequence VSTCFKLMLK tested on HLA-A*31:01; state its Kd.
Found: 806

Lookup: Consider the sequence QLQLLMPLK tested on HLA-A*31:01; state its Kd.
Found: 1480

Lookup: Consider the sequence TLAILTALR tested on HLA-A*31:01; state its Kd.
Found: 326

Lookup: Consider the sequence VQSKMSDVK tested on HLA-A*31:01; state its Kd.
Found: 7070

Lookup: Consider the sequence IINNAVYTK tested on HLA-A*31:01; state its Kd.
Found: 114

Go through the items and report each one's Kd.
1. LLSGHNLAK
2. TQVYIAVNDK
3. AIMQVFFGY

Found:
1. 6690
2. 6720
3. 452

====

What pKd was measured for each of the following?
# target: HLA-A*02:06
# assay.overview: IEDB peptide-MHC binding, purified MHC/competitive/radioactivity; filed as Kd, often an IC50 or EC50 that approximates it; bounds were set here for any values at or beyond the usual limits of such assays
# applied.conditions: source organism: Vaccinia virus WR
pKd: −log10 of the molar value.

The cases that follow already have their pKd on record.
Lookup: Item AAKTPVIVV : provide pKd
Found: ≤ 4.60

Lookup: Item ATLMKTSCSK : provide pKd
Found: ≤ 4.16

Go through the items and report each one's pKd.
1. SANMDWRSLT
2. RISSSLDQT

Found:
≤ 4.32
≤ 4.56

====

# target: HLA-A*24:02
# assay.overview: IEDB peptide-MHC binding, purified MHC/competitive/radioactivity; filed as Kd, often an IC50 or EC50 that approximates it; bounds were set here for any values at or beyond the usual limits of such assays
# applied.conditions: source organism: SARS coronavirus Tor2
pKd: −log10 of the molar value.
What pKd was measured for each of the following?

The cases that follow already have their pKd on record.
Lookup: Consider the sequence KTSVDCNMY tested on HLA-A*24:02; state its pKd.
Found: ≤ 4.11

Lookup: Consider the sequence TSTGNYNYKY tested on HLA-A*24:02; state its pKd.
Found: ≤ 4.15

Lookup: Consider the sequence LTGHMLDMY tested on HLA-A*24:02; state its pKd.
Found: ≤ 4.11

Lookup: Consider the sequence NAAISDYDYY tested on HLA-A*24:02; state its pKd.
Found: ≤ 4.15

Lookup: Consider the sequence IGAGICASY tested on HLA-A*24:02; state its pKd.
Found: ≤ 4.22

Moving on to the next sequence.
Lookup: Consider the sequence YYPSARIVY tested on HLA-A*24:02; state its pKd.
Found: ≤ 3.98

====

# target: HLA-A*01:01
# assay.overview: IEDB peptide-MHC binding, purified MHC/competitive/radioactivity; filed as Kd, often an IC50 or EC50 that approximates it; bounds were set here for any values at or beyond the usual limits of such assays
# applied.conditions: source organism: SARS coronavirus Tor2
pKd: −log10 of the molar value.
property: pKd

Lookup: Item LFTKFFYLL : provide pKd
Found: ≤ 4.11

Lookup: Item FFASFYYIW : provide pKd
Found: ≤ 4.42

Lookup: Item YYPSARIVY : provide pKd
Found: ≤ 4.34

Lookup: Item YYCKSHKPPI : provide pKd
Found: ≤ 4.32

Go through the items and report each one's pKd.
1. VFNNYMPYVF
2. IGAGICASY

Found:
≤ 4.69
≤ 4.32

====

# target: HLA-A*31:01
# assay.overview: IEDB peptide-MHC binding, purified MHC/competitive/radioactivity; filed as Kd, often an IC50 or EC50 that approximates it; bounds were set here for any values at or beyond the usual limits of such assays
# applied.conditions: source organism: Vaccinia virus WR
property: Kd (nM)
One number for each entry, in nM.

Lookup: Item RIENEMKINR : provide Kd
Found: 183

Lookup: Item IAHINTLIQY : provide Kd
Found: 8780

Go through the items and report each one's Kd.
1. SINKVYGRY
2. LLFASMGFK
3. IFSPENKAFK

Found:
[140, 55.6, 699]

Go through the items and report each one's Kd.
1. RVMANNVKKK
2. TFRERYSYK
3. TFQLLNMIK

Found:
760
14.6
326

Go through the items and report each one's Kd.
1. KLDNHDILTY
2. AAISKLGINY
3. KFISDNKKEY
4. KIDKLTFQIY
5. SLVENNFFTK
6. DMMLMIGNY
7. IMEIVSHLR
8. ELCGAFLFY

Found:
1: 9280; 2: 1400; 3: 427; 4: 3410; 5: 388; 6: 11000; 7: 11.9; 8: 1030

Go through the items and report each one's Kd.
1. TTYMDTFFR
2. IMSIGFEAR
3. ATLMKTSCSK
4. GARVIWMDAY
5. DMSHLKVALY
6. VLFSIFYKDY

Found:
[16.6, 30.3, 411, 220, 768, 1200]

Go through the items and report each one's Kd.
1. MVASDVCKK
2. VTNLISETLK
3. NARMATMLEY
4. TIREFPRKDK

Found:
[1680, 3270, 734, 295]

Go through the items and report each one's Kd.
1. KIMEIVSHLR
2. LTAVCMKCFK
3. KLVYIFEPEK

Found:
1. 0.559
2. 38.8
3. 9210

Go through the items and report each one's Kd.
1. ISDNKKEYK
2. STQQNKLVIR
3. HTTAFFNTCK
4. YSISNDLLY
5. LVCFPSTQR
6. LIWAYLSKK

Found:
[1820, 154, 113, 249, 37.5, 931]

Go through the items and report each one's Kd.
1. IMSMMNITR
2. AFDAPTLYVK

Found:
517
3840
